- measurementTarget: recombinant DYRK1A kinase (Homo sapiens (Human), UniProt Q13627)
- testProtocol: DYRK1A kinase assay (Ser/Thr 18 peptide Z-lyte FRET);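 note: Read-out is the coumarin to fluorescein emission ratio, referenced to unphosphorylated (0%) and phosphorylated (100%) Ser/Thr 18 peptide controls, values from dose-response curves by non-linear regression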
- conditionsUsed: 30 μM ATP, 1 h room temperature
Decision: EC50 beneath 6 nM gives true (1); EC50 meeting or exceeding 6 nM gives false (0).

Recorded results for 4 compounds are shown here.
# compound, labelClass
rows = [
    ("Cn1ncc(-c2ccc3cnc(NC(=O)C4CCOCC4)cc3c2)c1CO [Compound 984]", "true (1)"),
    ("Cn1cc(-c2ccc3cnc(NC(=O)C4CCN(CC5(C(F)(F)F)CC5)CC4)cc3c2)cn1 [Compound 310]", "false (0)"),
    ("CCN1CCC(C(=O)Nc2cc3cc(-c4cnn(C)c4)c(F)cc3cn2)CC1 [Compound 967]", "true (1)"),
    ("Cn1cc(-c2ccc3cnc(NC(=O)C4CCN(S(=O)(=O)c5ccccc5)CC4)cc3c2)cn1 [Compound 964]", "true (1)"),
]

Exercise: Confirm or reject: EC50 of CN1CCN(CC(=O)Nc2cc3cc(-c4cnco4)ccc3cn2)CC1 [Compound 983] lies strictly below 6 nM
Key: false (0)

Exercise: Confirm or reject: EC50 of Cn1cc(-c2ccc3cnc(NC(=O)C4CCNCC4)cc3c2)nn1 [Compound 452] lies strictly below 6 nM
Key: true (1)

Exercise: Confirm or reject: EC50 of Cc1ncc(-c2ccc3cnc(NC(=O)CN4CCOCC4)cc3c2)s1 [Compound 994] lies strictly below 6 nM
Key: false (0)
